Source of measurements: patent US20240400718A1

biological target: #231: CAR with VL-L1-VH scFv, Human 3rd-generation; experiment: flow cytometry on CAR-T cells; PE-labeled secondary antibody; PE-positive cells / total cells
Measured quantity: Reactivity (%)
Use % as the unit, but write only the number.

Exam item: Write down Reactivity (%) measured for item 2D12-B12 (antibody, V domains shown) VH: EVKLVESGGGLVQPGRSLKLSCAASGFNFNDYWMGWVRQAPGKGLEWIGEIKKDSSIINYIPSLKDKFTISRDNAQNTLYLQMSKLGSEDTAIYYCARGVEYYGYHYWGQGTLVTVSS VL: DIVMTQSPSSLAVSAGETVTINCKSSQSLLYSGNQKNYLAWYQQKPGQSPKLLIYWASTRHSGVPARFIGSGSGSDFTLTISSVQAEDLAIYCCQQYYDIPYTFGAGTKLELK
Marked response: 67.4
